Every entry's value here was drawn from patent US11498923B2.

Quick reference: Ki of the listed items.
Target: human A2a receptor (Homo sapiens, UniProt P29274)
Construct: purchased Perkin-Elmer RBHA2AM400UA; host or cells: HEK293 cells, used as a membrane preparation
Sequence (P29274 whole entry): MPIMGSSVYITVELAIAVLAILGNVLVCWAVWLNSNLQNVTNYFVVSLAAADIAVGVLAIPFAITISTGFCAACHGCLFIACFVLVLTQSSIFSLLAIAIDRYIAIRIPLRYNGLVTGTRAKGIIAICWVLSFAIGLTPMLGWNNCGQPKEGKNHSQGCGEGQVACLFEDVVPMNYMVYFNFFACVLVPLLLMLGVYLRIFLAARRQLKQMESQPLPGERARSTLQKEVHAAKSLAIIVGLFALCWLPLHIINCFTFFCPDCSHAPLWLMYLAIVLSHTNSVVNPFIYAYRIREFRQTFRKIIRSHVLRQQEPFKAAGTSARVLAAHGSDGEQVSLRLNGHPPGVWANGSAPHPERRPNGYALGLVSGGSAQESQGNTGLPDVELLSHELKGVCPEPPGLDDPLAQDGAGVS
Assay: A2a receptor competition binding assay (Scintillation Proximity)
Details: membranes from HEK293 cells expressing human A2a receptor; 0.5 nM tritiated ligand; Cheng-Prusoff; read-out: A2a Ki
propertyLabel: Ki (nM)

INSERT INTO measurements (molecule, testedtarget, propertylabel, displayunit, value) VALUES
  ('COc1cccc2c1nc(N)n1cc(CN3CCc4ccccc4C3)nc21', 'human A2a receptor (Homo sapiens, UniProt P29274)', 'Ki', 'nM', 3.7),
  ('N#Cc1ccc(N2CCC3(CCN(C(=O)c4cn5c(N)nc6c(F)cccc6c5n4)C3)C2)c(F)c1 (centres unmarked)', 'human A2a receptor (Homo sapiens, UniProt P29274)', 'Ki', 'nM', 43),
  ('Nc1nc2c(F)cccc2c2nc(CC3CCN(c4ncc(F)cn4)CC3)cn12', 'human A2a receptor (Homo sapiens, UniProt P29274)', 'Ki', 'nM', 12),
  ('COc1cccc2c1nc(N)n1cc(CN3CCN(c4ccccc4)CC3)nc21', 'human A2a receptor (Homo sapiens, UniProt P29274)', 'Ki', 'nM', 53.2),
  ('N#Cc1ccc(N2CCc3c(Cc4cn5c(N)nc6c(F)cccc6c5n4)cccc3C2)nc1', 'human A2a receptor (Homo sapiens, UniProt P29274)', 'Ki', 'nM', 3.8),
  ('COc1cccc2c1nc(N)n1cc(CN3CCc4ccc(-c5cncnc5)cc4C3)nc21', 'human A2a receptor (Homo sapiens, UniProt P29274)', 'Ki', 'nM', 7.9),
  ('CC(C)(C)OC(=O)N1CCC2(CCN(C(=O)c3cn4c(N)nc5c(F)cccc5c4n3)CC2)C1', 'human A2a receptor (Homo sapiens, UniProt P29274)', 'Ki', 'nM', 53),
  ('COc1cccc2c1nc(N)n1cc(C(=O)N3CCC4(CCOC4=O)CC3)nc21', 'human A2a receptor (Homo sapiens, UniProt P29274)', 'Ki', 'nM', 180),
  ('COc1cccc2c1nc(N)n1cc(C(=O)N3CCCC4(COC4)C3)nc21', 'human A2a receptor (Homo sapiens, UniProt P29274)', 'Ki', 'nM', 11),
  ('COc1cccc2c1nc(N)n1cc(Cc3cccnc3-c3cncnc3)nc21', 'human A2a receptor (Homo sapiens, UniProt P29274)', 'Ki', 'nM', 11),
  ('Nc1nc2c(F)cccc2c2nc(Cc3ccc(-c4ccc(F)cn4)cc3)cn12', 'human A2a receptor (Homo sapiens, UniProt P29274)', 'Ki', 'nM', 10),
  ('CC(C)(C)OC(=O)N1CCN(c2ccccc2CNC(=O)c2cn3c(N)nc4c(F)cccc4c3n2)CC1', 'human A2a receptor (Homo sapiens, UniProt P29274)', 'Ki', 'nM', 4.5),
  ('Nc1nc2c(F)cccc2c2nc(Cn3cc(-c4cc(C(F)(F)F)cc(C(F)(F)F)c4)nn3)cn12', 'human A2a receptor (Homo sapiens, UniProt P29274)', 'Ki', 'nM', 150),
  ('Nc1nc2c(F)cccc2c2nc(COc3ccccc3)cn12', 'human A2a receptor (Homo sapiens, UniProt P29274)', 'Ki', 'nM', 33),
  ('CCCN1CCc2c(Cc3cn4c(N)nc5c(F)cccc5c4n3)cccc2C1', 'human A2a receptor (Homo sapiens, UniProt P29274)', 'Ki', 'nM', 16),
  ('COc1cccc2c1nc(N)n1cc(C(=O)N3CCN4CCCC[C@@H]4C3)nc21', 'human A2a receptor (Homo sapiens, UniProt P29274)', 'Ki', 'nM', 152),
  ('Nc1nc2c(F)cccc2c2nc(C(=O)N3CCC4(CCNC4)C3)cn12 (centres unmarked)', 'human A2a receptor (Homo sapiens, UniProt P29274)', 'Ki', 'nM', 380),
  ('Nc1nc2c(F)cccc2c2nc(CN3CCc4cc(CC(=O)Nc5ccccn5)ccc4C3)cn12', 'human A2a receptor (Homo sapiens, UniProt P29274)', 'Ki', 'nM', 51),
  ('COc1cccc2c1nc(N)n1cc(Cc3cccc4cccnc34)nc21', 'human A2a receptor (Homo sapiens, UniProt P29274)', 'Ki', 'nM', 0.3),
  ('N#Cc1cccc(CC(=O)N2CCc3c(Cc4cn5c(N)nc6c(F)cccc6c5n4)cccc3C2)c1', 'human A2a receptor (Homo sapiens, UniProt P29274)', 'Ki', 'nM', 5.1),
  ('COc1cccc2c1nc(N)n1cc(Cc3cccnc3N3CCCC3)nc21', 'human A2a receptor (Homo sapiens, UniProt P29274)', 'Ki', 'nM', 6.2),
  ('Nc1nc2ccc(F)cc2c2nc(Cc3ccccc3)cn12', 'human A2a receptor (Homo sapiens, UniProt P29274)', 'Ki', 'nM', 3.6),
  ('COc1cccc2c1nc(N)n1cc(C(=O)N3CCC4(CCC(=O)O4)CC3)nc21', 'human A2a receptor (Homo sapiens, UniProt P29274)', 'Ki', 'nM', 240),
  ('COc1ccccc1CN1CCC(Cc2cn3c(N)nc4c(F)cccc4c3n2)CC1', 'human A2a receptor (Homo sapiens, UniProt P29274)', 'Ki', 'nM', 94),
  ('Nc1nc2c(F)cccc2c2nc(C(=O)NCC(c3cccnc3)N3CCOCC3)cn12 (centres unmarked)', 'human A2a receptor (Homo sapiens, UniProt P29274)', 'Ki', 'nM', 1400),
  ('COc1cccc2c1nc(N)n1cc(Cc3ccccc3)nc21', 'human A2a receptor (Homo sapiens, UniProt P29274)', 'Ki', 'nM', 0.4),
  ('COc1cccc2c1nc(N)n1cc(C(=O)N3CCCOCC3)nc21', 'human A2a receptor (Homo sapiens, UniProt P29274)', 'Ki', 'nM', 49),
  ('COc1cccc2c1nc(N)n1cc(Cc3ccc(N4CCOCC4)nc3)nc21', 'human A2a receptor (Homo sapiens, UniProt P29274)', 'Ki', 'nM', 9.8),
  ('Cc1cc(Cc2cn3c(N)nc4c(-c5c(C)noc5C)cccc4c3n2)ccn1', 'human A2a receptor (Homo sapiens, UniProt P29274)', 'Ki', 'nM', 130);

* * *

Quick reference: Ki of the listed items.
Target: human A2a receptor (Homo sapiens, UniProt P29274)
Construct: purchased Perkin-Elmer RBHA2AM400UA; host or cells: HEK293 cells, used as a membrane preparation
Assay: A2a receptor competition binding assay (Scintillation Proximity)
Details: membranes from HEK293 cells expressing human A2a receptor; 0.5 nM tritiated ligand; Cheng-Prusoff; read-out: A2a Ki
Procedure: Binding affinities of compounds of the invention for the human A2a receptor were determined in a competition binding assay using Scintillation Proximity technology. […] The beads were then allowed to settle to the bottom of the wells for 1 hr, after which the membrane-associated radioactivity was determined by scintillation counting in a TopCount microplate reader. Ki values were determined using the Cheng-Prusoff equation. […]
propertyLabel: Ki (nM)

INSERT INTO results (smilescode, value) VALUES
  ('COCCOc1ccc(N2CCN(c3cccc(CNC(=O)c4cn5c(N)nc6c(F)cccc6c5n4)c3)CC2)cc1', 5.1),
  ('COc1cccc2c1nc(N)n1cc(Cc3c(Cl)cccc3Cl)nc21', 2.1),
  ('Nc1nc2c(F)cccc2c2nc(CC3CCN(CC4CC4)CC3)cn12', 220),
  ('Nc1nc2ccccc2c2nc(Cc3cccc4cccnc34)cn12', 2),
  ('CC(=O)N1CCCC2(CCN(C(=O)c3cn4c(N)nc5c(F)cccc5c4n3)CC2)C1', 61),
  ('Nc1nc2c(F)cccc2c2nc(CN3CCN(Cc4ccccc4)CC3)cn12', 160),
  ('COc1cccc2c1nc(N)n1cc(Cc3ccccc3N3CCCC3)nc21', 1.6);

* * *

Attribute: pKi
Target: human A2a receptor (Homo sapiens, UniProt P29274)
Construct: purchased Perkin-Elmer RBHA2AM400UA; host or cells: HEK293 cells, used as a membrane preparation
Assay: A2a receptor competition binding assay (Scintillation Proximity)
Settings: membranes from HEK293 cells expressing human A2a receptor; 0.5 nM tritiated ligand; Cheng-Prusoff; read-out: A2a Ki
pKi: −log10 of the molar value.
propertyLabel: pKi

INSERT INTO results (compound, propertylabel, value) VALUES
  ('COc1cccc2c1nc(N)n1cc(Cc3cccnc3F)nc21', 'pKi', 8.55),
  ('Nc1nc2c(F)cccc2c2nc(CC3CCN(C(=O)c4cccc(Br)n4)CC3)cn12', 'pKi', 7.59),
  ('Nc1nc2cc(N3CCOCC3)c(F)cc2c2nc(Cc3ccccc3)cn12', 'pKi', 6.04),
  ('CCN1CCC2(CCN(C(=O)c3cn4c(N)nc5c(F)cccc5c4n3)C2)C1 (centres unmarked)', 'pKi', 7.00),
  ('Nc1nc2c(F)cccc2c2nc(Cc3ccccc3CN3CCC(N4CCOCC4)CC3)cn12', 'pKi', 8.38),
  ('Nc1nc2c(F)cccc2c2nc(Cc3ccccc3-c3ccccc3)cn12', 'pKi', 8.59),
  ('Nc1nc2c(F)cccc2c2nc(CN3CCCc4cc(Br)ccc43)cn12', 'pKi', 8.09),
  ('COc1cccc2c1nc(N)n1cc(Cc3cccnc3N3CCCCC3)nc21', 'pKi', 8.43),
  ('COc1cccc2c1nc(N)n1cc(C(=O)N3CCC4(CCOC4)CC3)nc21', 'pKi', 7.66),
  ('Nc1nc2c(F)cccc2c2nc(CC3CCN(CCc4ccccc4)CC3)cn12', 'pKi', 6.52),
  ('COc1cccc2c1nc(N)n1cc(Cc3ccccc3N(C)C)nc21', 'pKi', 8.85),
  ('Nc1nc2c(F)cccc2c2nc(C(=O)N3CCC4(CCN(C(=O)Cc5ccc(F)c(F)c5)C4)C3)cn12 (centres unmarked)', 'pKi', 7.49),
  ('Nc1nc2c(F)cccc2c2nc(Cc3cc(F)ccc3-c3ccnc(N4CCOCC4)c3)cn12', 'pKi', 8.16),
  ('COc1cccc2c1nc(N)n1cc(CN3CCc4ccc(-c5ccc(F)c(F)c5)cc4C3)nc21', 'pKi', 7.98),
  ('Nc1nc2c(F)cccc2c2nc(C(=O)N3CCc4ccc(NC(=O)c5ccccn5)cc4C3)cn12', 'pKi', 7.33),
  ('COc1cccc2c1nc(N)n1cc(C(=O)N3CCO[C@@H](C)C3)nc21', 'pKi', 7.12),
  ('Nc1nc2c(F)cccc2c2nc(CN3CCN(C(=O)Cc4ccccn4)c4ccccc43)cn12', 'pKi', 7.92),
  ('Nc1nc2c(F)cccc2c2nc(C(=O)NCc3ccccn3)cn12', 'pKi', 7.85),
  ('Nc1nc2c(F)cccc2c2nc(Cc3ccccc3CN3CCOCC3)cn12', 'pKi', 8.22),
  ('Nc1nc2c(F)cccc2c2nc(CN3CCN(CCc4ccccc4)CC3)cn12', 'pKi', 7.12),
  ('Nc1nc2c(F)cccc2c2nc(CCc3ccccn3)cn12', 'pKi', 8.07),
  ('Nc1nc2c(F)cccc2c2nc(Cn3cc(-c4ccc(OC(F)(F)F)cc4)nn3)cn12', 'pKi', 8.17),
  ('COc1cccc2c1nc(N)n1cc(C(=O)N3CCC(C)CC3)nc21', 'pKi', 7.89),
  ('C[C@@H](NC(=O)c1cn2c(N)nc3c(F)cccc3c2n1)c1ccccc1', 'pKi', 8.64),
  ('COc1cccc2c1nc(N)n1cc(C(=O)N3CCCC(=O)CC3)nc21', 'pKi', 7.51),
  ('Nc1nc2c(F)cccc2c2nc(C(=O)NCc3ccccc3CN3CCOCC3)cn12', 'pKi', 8.21);
